test-system: Induced myeloid leukemia cell differentiation protein Mcl-1 (Homo sapiens)
experiment-description: blockers of Bid binding to Mcl-1 – biochemical, TR-FRET, dose response (AID 1418)
condition-label: Mcl-1/Bid peptide binding, TR-FRET (europium/Dy647), 2 hr
Calls of active or inactive are those of the source. No rule for the calls is given here.
One label from this list, please: active, inactive

Completed entries (count: 5):
# molecule, category
measured = [
    ("Cc1ccc(S(=O)(=O)/N=S(\\C)C(C)C)cc1 (stereo unspecified)", "inactive"),
    ("C[C@@H](C(=O)Nc1nc2ccc(F)cc2s1)N1C(=O)C2CC=CCC2C1=O (stereo partly specified)", "inactive"),
    ("c1ccc2nc3ccccc3nc2c1", "inactive"),
    ("CCOc1ccc(-n2c(-c3ccoc3)nc3ccccc3c2=O)cc1", "inactive"),
    ("CC1(C(=O)NNC(=O)C2CCCCC2)CC1(Cl)Cl (stereo unspecified)", "inactive"),
]

What did the test return for O=C(COC(=O)c1cc[n+]([O-])cc1)Nc1ccccc1Cl ?
inactive

----------
test-system: Induced myeloid leukemia cell differentiation protein Mcl-1 (Homo sapiens)
experiment-description: blockers of Bid binding to Mcl-1 – biochemical, TR-FRET, dose response (AID 1418)
condition-label: Mcl-1/Bid peptide binding, TR-FRET (europium/Dy647), 2 hr
Activity calls are given as the source filed them. No rule for the calls is given here.
One label from this list, please: active, inactive

Completed entries (count: 3):
# molecule, category
rows = [
    ("C#CCOCCOCCOCCNc1nc(N2CCN(C(=O)C(Cc3ccc(O)cc3)n3cc(C(N)CC(C)C)nn3)CC2)nc(N2CCN(C(=O)C(Cc3cc4ccccc4[nH]3)n3cc(C(N)Cc4ccc(O)cc4)nn3)CC2)n1 (centres undefined)", "inactive"),
    ("Cc1cc(C)c(S(=O)(=O)/N=C2/C=C(Sc3ncn[nH]3)C(=O)c3ccccc32)cc1C", "active"),
    ("COc1ccc(-c2nc(-n3c(C)c(C(C)=O)c(C(C)=O)c3C)sc2C)cc1", "inactive"),
]

What did the test return for CCN(CC)C(=O)CN(C)S(=O)(=O)c1cccc2nsnc12 ?
inactive

Please do the same for COC(=O)c1ccc(-c2nc3cc(Cl)c(N)cc3s2)cc1 as well.
inactive

Please do the same for Cc1ccc(C)c(NC(=O)C2CCCN2/C=C/C(=O)C(F)(F)F)c1 (centres undefined) as well.
inactive

Please do the same for Cc1ccc2nc(NC(=O)c3ccc(-c4nc5ccccc5s4)s3)sc2c1 as well.
active

Please do the same for O=C(/C=C/c1cccc([N+](=O)[O-])c1)Nc1ccc(NC(=O)c2cccs2)cc1 as well.
active

Please do the same for Cc1c(C(=O)N/N=C/c2ccc(-c3ccccc3[N+](=O)[O-])o2)sc(N)c1C#N as well.
active

----------
test-system: Induced myeloid leukemia cell differentiation protein Mcl-1 (Homo sapiens) (UniProt Q07820)
Sequence (Q07820 whole entry, looked up): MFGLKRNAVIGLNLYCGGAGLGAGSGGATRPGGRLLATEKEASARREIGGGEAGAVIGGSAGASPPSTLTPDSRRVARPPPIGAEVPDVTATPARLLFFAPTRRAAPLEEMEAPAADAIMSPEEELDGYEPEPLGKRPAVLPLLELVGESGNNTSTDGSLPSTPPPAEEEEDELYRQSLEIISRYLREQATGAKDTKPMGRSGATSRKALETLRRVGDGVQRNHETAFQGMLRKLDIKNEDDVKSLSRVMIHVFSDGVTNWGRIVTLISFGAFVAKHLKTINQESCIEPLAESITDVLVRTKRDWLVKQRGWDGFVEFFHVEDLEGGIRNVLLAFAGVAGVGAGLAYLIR
experiment-description: blockers of Bid binding to Mcl-1 – biochemical, TR-FRET, dose response (AID 1418)
condition-label: Mcl-1/Bid peptide binding, TR-FRET (europium/Dy647), 2 hr
Calls of active or inactive are those of the source. No rule for the calls is given here.
One label from this list, please: active, inactive

# compound, category
measured = [
    ("Cc1cc(C)n(Cc2cccc(F)c2)c(=O)c1C#N", "inactive"),
]

What did the test return for O=C(O)COc1ccccc1C(Nc1ccccn1)c1cc(Cl)c2cccnc2c1O (stereo not given) ?
active

Please do the same for O=C(COC(=O)CCNS(=O)(=O)c1ccc2c(c1)OCCO2)NC1CCCc2ccccc21 (stereo not given) as well.
inactive

----------
test-system: Induced myeloid leukemia cell differentiation protein Mcl-1 (Homo sapiens) (UniProt Q07820)
experiment-description: blockers of Bid binding to Mcl-1 – biochemical, TR-FRET, dose response (AID 1418)
condition-label: Mcl-1/Bid peptide binding, TR-FRET (europium/Dy647), 2 hr
The source made the active and inactive calls. No rule for the calls is given here.
One label from this list, please: class 1 (active), class 0 (inactive)

# molecule, category
rows = [
    ("Cn1nc(-c2ccc(Cl)cc2)c2cc(C(=O)NCCN3CCOCC3)sc21", "class 0"),
]

What did the test return for Cn1c(CSc2nc3ccccc3s2)nnc1SCC(=O)NCc1cccnc1 ?
class 0

Please do the same for O=c1[nH]c(-c2ccccc2Cl)nc2c1sc(=S)n2-c1ccccc1 as well.
class 0

Please do the same for COc1ccc(Nc2nc(C)c3ccccc3n2)cc1 as well.
class 0

Please do the same for O=[N+]([O-])c1cc(Br)c(O)c(/C=N/Nc2nc3ccccc3s2)c1 as well.
class 1

Please do the same for CCN1/C(=C\C=C2\C(=O)N(c3ccccc3)C(=S)N2C)Sc2ccccc21 as well.
class 1

Please do the same for CC1=NOC(=O)/C1=C/c1ccc(-c2ccc(Cl)cc2)o1 as well.
class 1

Please do the same for C=C(C(=O)c1ccccc1)C(C(=C)C(=O)c1ccccc1)c1ccc(OC)cc1 as well.
class 0

----------
test-system: Induced myeloid leukemia cell differentiation protein Mcl-1 (Homo sapiens)
experiment-description: blockers of Bid binding to Mcl-1 – biochemical, TR-FRET, dose response (AID 1418)
condition-label: Mcl-1/Bid peptide binding, TR-FRET (europium/Dy647), 2 hr
Calls of active or inactive are those of the source. How the calls were made is not given here.
One label from this list, please: 1 (yes) (active), 0 (no) (inactive)

What did the test return for CN(NC(=O)COc1ccccc1)c1ccccc1 ?
0 (no)

Please do the same for CC1CCCC(C)N1CCNC(=O)C1CCN(S(=O)(=O)N2CCCCC2)CC1 (configuration not stated) as well.
0 (no)

----------
test-system: Induced myeloid leukemia cell differentiation protein Mcl-1 (Homo sapiens) (UniProt Q07820)
experiment-description: blockers of Bid binding to Mcl-1 – biochemical, TR-FRET, dose response (AID 1418)
condition-label: Mcl-1/Bid peptide binding, TR-FRET (europium/Dy647), 2 hr
The source made the active and inactive calls. The rule behind the calls is not given here.
One label from this list, please: active, inactive

# compound, category
measured = [
    ("Cc1ccc(OCc2ccc(C(=O)Nc3nc4ccccc4n3Cc3ccccc3)o2)c([N+](=O)[O-])c1", "inactive"),
    ("O=C(Cn1nc(C(F)(F)F)c2c1CCCC2)NCc1ccco1", "inactive"),
]

What did the test return for c1ccc(Oc2nc3ccccc3n3cccc23)cc1 ?
inactive

----------
test-system: Induced myeloid leukemia cell differentiation protein Mcl-1 (Homo sapiens)
experiment-description: blockers of Bid binding to Mcl-1 – biochemical, TR-FRET, dose response (AID 1418)
condition-label: Mcl-1/Bid peptide binding, TR-FRET (europium/Dy647), 2 hr
The source made the active and inactive calls. The rule behind the calls is not given here.
One label from this list, please: label 1 = active, label 0 = inactive

Completed entries (count: 10):
# compound, category
measured = [
    ("COc1cccc(NC(=O)CSc2nc3ccccc3n2C)c1", "label 0"),
    ("O=C(/C=C/c1cccs1)Nc1scc(-c2ccccc2)c1C(=O)O", "label 1"),
    ("CCCc1cc(=O)[nH]c(SCC(=O)c2c(C)[nH]c3ccccc23)n1", "label 0"),
    ("COc1cc(C(=O)N/N=C\\c2ccccc2)c([N+](=O)[O-])c(OC)c1OC", "label 0"),
    ("CCn1c(-c2cccc(Br)c2)n[nH]c1=S", "label 0"),
    ("CC1C(=O)CCN(C(C)C)C1C (stereo unspecified)", "label 0"),
    ("Nc1c(C(=O)NCC2CCCO2)sc2nc3c(c(-c4ccco4)c12)CC/C3=C\\c1ccco1 (stereo unspecified)", "label 0"),
    ("N=C1S/C(=C\\c2ccc(-c3cccc(Cl)c3)o2)C(=O)N1c1nccs1", "label 1"),
    ("COc1cc(OC)cc(C(=O)N2CCN(Cc3ccccc3C(F)(F)F)CC2)c1", "label 0"),
    ("CCOc1ccc(NC(=O)CC2C(=O)N(c3ccc(OC)cc3)C(=S)N2Cc2ccccn2)cc1 (stereo unspecified)", "label 0"),
]

What did the test return for C=C(C)Cn1c(Sc2nnc(C)s2)nc2c1c(=O)[nH]c(=O)n2C ?
label 0

Please do the same for CS(=O)(=O)NCc1ccc(C(=O)NCCOc2ccccc2)cc1 as well.
label 0

Please do the same for O=[N+]([O-])c1ccc(-c2cn(-c3ccc(Cl)cc3)c(=S)[nH]2)cc1 as well.
label 0

Please do the same for COc1ccccc1C1C2=C(N=c3s/c(=C/c4cccc(OCC(=O)O)c4)c(=O)n31)c1ccccc1CC2 (stereo unspecified) as well.
label 1

Please do the same for Nc1nnc(SCC(=O)N2CCN(c3ccccc3)CC2)n1-c1ccccc1 as well.
label 0

Please do the same for Cc1ccc(-n2cccc2/C=C2/C(=N)N3C(=NC2=O)SN=C3S(C)(=O)=O)cc1Cl as well.
label 1

Please do the same for COc1ccc2[nH]c(=O)c(CN(C(=O)C3CCCO3)c3ccc(C)c(C)c3)cc2c1 (stereo unspecified) as well.
label 0

Please do the same for COc1ccc2c(c1)c(=O)oc1cc3oc(C)c(C)c3cc12 as well.
label 1

Please do the same for O=C(CN1C(=O)S/C(=C\c2ccc(Cl)cc2)C1=O)NNC(=O)c1ccccc1O as well.
label 1

Please do the same for CCOC(=O)c1c(NC(=O)N/N=C/c2ccc(O)c(OC)c2)sc(C(C)=O)c1C as well.
label 1

Please do the same for CC12CCC(C(=O)Nc3ccccc3-n3cccc3)(CC1=O)C2(C)C (stereo unspecified) as well.
label 0
